Just for reference, patent US8530490B2 is where these values come from.

Target: human dUTPase (Homo sapiens (Human), UniProt P33316)
Sequence (P33316 94-252): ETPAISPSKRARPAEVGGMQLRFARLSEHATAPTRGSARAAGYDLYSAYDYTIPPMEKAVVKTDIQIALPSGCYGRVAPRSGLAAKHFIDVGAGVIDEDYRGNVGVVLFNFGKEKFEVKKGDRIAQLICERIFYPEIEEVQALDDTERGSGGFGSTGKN
Assay: Human dUTPase inhibitory effect: production of [5-3H]dUMP from [5-3H]dUTP, measured by HPLC with flow scintillation
Conditions: [5-3H]dUMP production from [5-3H]dUTP, 37° C., 15 minutes
METRIC: IC50 (nM)
Express it in nM; write the number only.

Query :: So what's the measured IC50 for this one? CC(C)C(NS(=O)(=O)CCCOCn1ccc(=O)[nH]c1=O)c1cccc(OCC2CC2)c1 (stereo not shown)
Result :: 330

Query :: Endpoint output: IC50 of "CC(C)(NS(=O)(=O)c1cccc(OCC2CC2)c1)c1ccc(Cn2ccc(=O)[nH]c2=O)nc1" . Value?
Result :: 110

Query :: Which IC50 is reported for this molecule? CC(C)C(NS(=O)(=O)CCCOCn1ccc(=O)[nH]c1=O)c1ccc(F)c(OCC2CC2)c1 (stereo not shown)
Result :: 100

Query :: IC50 lookup needed for "CC(C)(CCCOCn1ccc(=O)[nH]c1=O)NS(=O)(=O)c1cccc(Cl)c1" , thanks.
Result :: 2770

Query :: For the molecule shown here, "O=c1ccn(COCCCS(=O)(=O)N[C@@H](c2ccc(F)c(OCC3CC3)c2)C2CC2)c(=O)[nH]1" , give the reported IC50.
Result :: 100

Query :: Query: IC50; subject: CCC(NS(=O)(=O)CCCOCn1ccc(=O)[nH]c1=O)c1ccc(F)c(OCC2CC2)c1 (stereo not shown)
Result :: 30

Query :: If you can, please state the reported IC50 value of "C[C@@H](NS(=O)(=O)CC/C=C/Cn1ccc(=O)[nH]c1=O)c1ccc(F)c(OCC2CC2)c1" .
Result :: 40

Query :: Which measured IC50 value corresponds to "O=c1ccn(COCCCS(=O)(=O)N[C@H](c2ccc(F)cc2)c2ccc(F)c(OCC3CC3)c2)c(=O)[nH]1" ?
Result :: 100

Query :: What value of IC50 has been recorded for this entry: O=c1ccn(COCCCS(=O)(=O)NC(c2ccccc2)c2cccc(OC(F)(F)C(F)F)c2)c(=O)[nH]1 (stereo not shown)
Result :: 940

Query :: Recorded IC50 of "C[C@@H](NS(=O)(=O)CCCOCn1ccc(=O)[nH]c1=O)c1ccc(F)c(OC2CCOCC2)c1" , please.
Result :: 140

Query :: Need IC50 of "CCC[C@H](C)Oc1cccc([C@@H](C)NS(=O)(=O)CCCOCn2ccc(=O)[nH]c2=O)c1" , thanks.
Result :: 760

Query :: // query IC50 value for entry "CC(C)(CCCOCn1ccc(=O)[nH]c1=O)NS(=O)(=O)c1cccc(OC(=O)c2ccccc2)c1"
Result :: 8680

Query :: Field request: IC50 | item: "C[C@@H](NS(=O)(=O)CCCn1ccc(=O)[nH]c1=O)c1cccc(OCC2CC2)c1"
Result :: 1710

Query :: Reported IC50, molecule "C[C@@H](NS(=O)(=O)CCCOCn1ccc(=O)[nH]c1=O)c1cccc(OCC(C)(C)O)c1" : ____
Result :: 1870

Query :: Reported IC50 for "C[C@@H](NS(=O)(=O)CCCOCn1ccc(=O)[nH]c1=O)c1cccc(OCC(F)(F)C(F)(F)F)c1" : what is it?
Result :: 660

Query :: For the molecule "O=c1ccn(COCCCS(=O)(=O)N[C@@H](c2cccc(OC3CCCC3)c2)C2CC2)c(=O)[nH]1" , what IC50 is on record?
Result :: 330

Query :: Can you share its IC50? I mean this molecule: "C[C@@H](NS(=O)(=O)CCCOCn1ccc(=O)[nH]c1=O)c1cccc(OCC2(C)CC2)c1"
Result :: 490

Query :: Recorded IC50 for "O=c1ccn(COCCCS(=O)(=O)NCc2ccc(F)c(OCC3CC3)c2)c(=O)[nH]1" , please?
Result :: 640

Query :: Which IC50 reading was recorded for the molecule "CC[C@@H](C)Oc1cccc([C@@H](C)NS(=O)(=O)CCCOCn2ccc(=O)[nH]c2=O)c1" ?
Result :: 460

Query :: Need IC50 of "C#C[C@@H](C)Oc1cccc([C@@H](C)NS(=O)(=O)CCCOCn2ccc(=O)[nH]c2=O)c1" , thanks.
Result :: 470

Query :: Would you mind telling me what IC50 value was observed for "O=c1ccn(COCCCS(=O)(=O)NC(c2cccc(OCC3CC3)c2)c2cccc(OCC3CC3)c2)c(=O)[nH]1" ?
Result :: 210

Query :: Give its IC50 value. Item: "C[C@@H](NS(=O)(=O)CCCOCn1ccc(=O)[nH]c1=O)c1cccc(OC(CF)CF)c1"
Result :: 850

Query :: Which IC50 is listed for "CC[C@@H](NS(=O)(=O)CCCn1ccc(=O)[nH]c1=O)c1ccc(F)c(OCC2CC2)c1" ?
Result :: 250

Query :: Look at this molecule and give its reported IC50. "O=c1ccn(COCCCS(=O)(=O)NCc2cccc(OC3CCC3)c2)c(=O)[nH]1"
Result :: 610

Query :: Give its IC50 value. Item: "O=c1ccn(COCCCC2(NS(=O)(=O)c3cccc(OCC4CC4)c3)CC2)c(=O)[nH]1"
Result :: 130

Query :: Return reported IC50; argument: CC(C)COc1cccc(C(NS(=O)(=O)CCCOCn2ccc(=O)[nH]c2=O)c2ccccc2)c1 (stereo not shown)
Result :: 600

Query :: Can you share its IC50? I mean this molecule: "Cc1cccc(S(=O)(=O)NC(C)(C)CCCOCn2ccc(=O)[nH]c2=O)c1"
Result :: 8820

Query :: So what's the measured IC50 for this one? "CC[C@@H](NS(=O)(=O)CCCOCn1ccc(=O)[nH]c1=O)c1cccc(OC2CC2)c1"
Result :: 90

Query :: So what does the record say about IC50 for "O=c1ccn(COCCCS(=O)(=O)NCc2cccc(OC3CC3)c2)c(=O)[nH]1" ?
Result :: 1130

Query :: Look at this molecule and give its reported IC50. "C[C@@H](NS(=O)(=O)CCCOCn1ccc(=O)[nH]c1=O)c1cccc(OCC2CC2)c1"
Result :: 50

Query :: Report IC50 for "C[C@@H](NS(=O)(=O)CCCCCn1ccc(=O)[nH]c1=O)c1cccc(OCC2CC2)c1" please.
Result :: 120
